The reported numbers originate from paper PMC3089477.

- subject_of_test: T1, BcnI H219N (UniProt Q8RNV8 1-238, H219N)
- T1 sequence: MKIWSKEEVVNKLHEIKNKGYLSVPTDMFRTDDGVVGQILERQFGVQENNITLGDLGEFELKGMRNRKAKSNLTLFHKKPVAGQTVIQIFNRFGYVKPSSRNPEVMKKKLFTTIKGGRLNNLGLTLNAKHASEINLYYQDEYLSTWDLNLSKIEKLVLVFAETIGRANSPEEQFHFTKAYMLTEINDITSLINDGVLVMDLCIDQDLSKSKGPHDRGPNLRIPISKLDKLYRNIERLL
- assay_remarks: EMSA
recorded_metric: Kd
State the result as a value with its unit after it.

May I ask what Kd has been recorded for CG oligoduplex (cognate) (dsDNA) DNA 1: CGCACGACTTCCCGGAAGAGCACGC DNA 2: GTTGCGTGCTCTTCCGGGAAGTCGTGCG ?
0.4 nM
